# test target: histone deacetylase, subtype 1 (HDAC1) (Homo sapiens)
# Construct: Flag; made in house
# Sequence (Q13547 whole entry): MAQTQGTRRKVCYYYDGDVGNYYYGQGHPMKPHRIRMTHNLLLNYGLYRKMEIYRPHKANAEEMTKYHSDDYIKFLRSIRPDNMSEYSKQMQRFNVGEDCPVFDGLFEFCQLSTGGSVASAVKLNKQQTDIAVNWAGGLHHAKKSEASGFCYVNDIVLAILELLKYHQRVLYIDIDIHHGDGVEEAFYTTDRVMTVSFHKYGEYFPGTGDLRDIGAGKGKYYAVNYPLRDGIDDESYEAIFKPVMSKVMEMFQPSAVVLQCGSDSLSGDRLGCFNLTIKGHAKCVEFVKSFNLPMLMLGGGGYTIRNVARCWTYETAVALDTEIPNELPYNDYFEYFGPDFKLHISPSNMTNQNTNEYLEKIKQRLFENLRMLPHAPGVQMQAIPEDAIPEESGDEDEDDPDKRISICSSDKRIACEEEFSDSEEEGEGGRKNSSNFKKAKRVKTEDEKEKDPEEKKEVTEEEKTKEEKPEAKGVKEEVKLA
# measurement protocol: HDAC1-Flag assay (in vitro fluorescent deacetylation assay)
# Assay type: biochemical
# assay setup: Table 3, compounds of formula IV; epitope-tagged human HDAC1 complex, substrate at Km; mean ± spread (N); read-out: HDAC Inhibition (IC50) nm
parameter measured: pIC50
Numbers only, as −log10 of the molar value.

List reported pIC50 for each of these molecules:
1. O=C(CCCCC(=O)N(Cc1ccccc1)Cc1ccccc1)NO
2. O=C(CCCCCCC(=O)N(Cc1ccccc1)Cc1ccccc1)NO
3. O=C(CCCCC(=O)N1CCN(c2ccc(Cl)cc2)CC1)NO
4. O=C(CCC(=O)N1CCN(c2cccc(Cl)c2)CC1)NO
5. O=C(CCCC(=O)N1CCN(c2cccc(Cl)c2)CC1)NO
6. O=C(CCCCCCCCC(=O)N(CCc1ccccc1)Cc1ccccc1)NO
7. O=C(CCCCCCC(=O)N1CCN(c2cccc(Cl)c2)CC1)NO

1. 6.05
2. 6.33
3. 6.32
4. 4.89
5. 6.32
6. 6.36
7. 7.41

Hey, can you go through the list below and give me pIC50 for every item?
1. O=C(CCCCCC(=O)N(CCc1c[nH]c2ccccc12)Cc1ccc(Br)cc1)NO
2. O=C(CCCC(=O)N1CCN(c2ccc(Cl)cc2)CC1)NO
3. O=C(CCCCC(=O)N(CCc1ccccc1)Cc1ccccc1)NO

1. 6.79
2. 6.01
3. 5.59

Give one value of pIC50 per listed molecule.
1. O=C(CCCCC(=O)N1CCN(c2ccccc2)CC1)NO
2. O=C(CCCCCCC(=O)N1CCN(C(=O)OCc2ccccc2)CC1)NO
3. O=C(CCCCCCC(=O)N(CCc1ccccc1)Cc1ccccc1)NO

5.87
6.52
6.23
